- Tested on: LXFL 529
- TEST PROTOCOL: NCI tumour cell line growth inhibition, 48 h
Activity calls are given as the source filed them. Rule as the data show it: active = GI50 up to about 1.1 µM and inactive = higher.
ASSAY READOUT: GI50

compound=CCSC1=C(C)N(/C=N/C(C)(C)C)CC1 measured_on="LXFL 529" assay_readout=GI50 result="> 100 µM (inactive)"
compound=CN(C)/N=N/c1c[nH]nc1C(N)=O measured_on="LXFL 529" assay_readout=GI50 result="> 100 µM (inactive)"
compound=COc1ccc(Nc2nc3cc(C(F)(F)F)ccc3nc2-c2ccccc2)cc1OC measured_on="LXFL 529" assay_readout=GI50 result="49 µM (inactive)"
compound="COC12OCCN(C)C1=CC(=O)C1=NNC(C)C12 (stereo not given)" measured_on="LXFL 529" assay_readout=GI50 result="> 100 µM (inactive)"
compound=O=C(O)CCNCCCCNCCC(=O)O measured_on="LXFL 529" assay_readout=GI50 result="> 100 µM (inactive)"
compound=NCc1cc(O)c(O)c(O)c1 measured_on="LXFL 529" assay_readout=GI50 result="> 100 µM (inactive)"
compound=CCCc1c(C(=O)OCC)[nH]c(-c2ccc(-c3[nH]c(C(=O)OCC)c(CCC)c3C(=O)OCC)s2)c1C(=O)OCC measured_on="LXFL 529" assay_readout=GI50 result="33 µM (inactive)"
compound="Cc1ccccc1C(CCCO)C(=O)O (stereo not given)" measured_on="LXFL 529" assay_readout=GI50 result="> 100 µM (inactive)"
compound="O=C(/C=C/c1ccccc1)NC1C=Nc2ccc(Cl)cc2NC1=O (stereo not given)" measured_on="LXFL 529" assay_readout=GI50 result="23.9 µM (inactive)"
compound="O=C1[C@H]2ON(c3ccccc3)C(c3cccc([N+](=O)[O-])c3)[C@H]2C(=O)N1c1ccc(Cc2ccc(N3C(=O)[C@@H]4ON(c5ccccc5)C(c5cccc([N+](=O)[O-])c5)[C@@H]4C3=O)cc2)cc1 (stereo not given in full)" measured_on="LXFL 529" assay_readout=GI50 result="> 100 µM (inactive)"
compound="O=C1NC2OCC(O)C(O)C2O1 (stereo not given)" measured_on="LXFL 529" assay_readout=GI50 result="> 100 µM (inactive)"
compound="CC(C)S(=O)(=O)n1c(N)nc2ccc(/C(=N/O)c3ccccc3)cc21 [ENVIROXIME]" measured_on="LXFL 529" assay_readout=GI50 result="41.4 µM (inactive)"
compound=NC1c2ccccc2Nc2ccccc21 measured_on="LXFL 529" assay_readout=GI50 result="4.94 µM (inactive)"
compound="C[C@]12CC[C@H](O)CC1=CC[C@@H]1C2CC[C@]2(C)Nc3c(cnn3-c3ccccc3)CC12 (stereo not given in full)" measured_on="LXFL 529" assay_readout=GI50 result="4.06 µM (inactive)"
compound=Cc1ccc(NC(=O)NC(=O)c2ccc([N+](=O)[O-])cc2[N+](=O)[O-])cc1Oc1ncc(Cl)cn1 measured_on="LXFL 529" assay_readout=GI50 result="0.36 µM (active)"
compound=Cc1ccc(S(=O)(=O)N/N=C/c2oc(-c3cccc([N+](=O)[O-])c3)c(-c3cccc([N+](=O)[O-])c3)c2[N+](=O)[O-])cc1 measured_on="LXFL 529" assay_readout=GI50 result="36.7 µM (inactive)"
compound=N#CCCN(c1ccc(/C=N/c2cccc([N+](=O)[O-])c2)cc1)S(=O)(=O)c1ccccc1 measured_on="LXFL 529" assay_readout=GI50 result="> 100 µM (inactive)"
compound="COc1ccc(C(O)/C(=N\\NC(N)=S)c2nc3ccc([N+](=O)[O-])cc3nc2O)cc1OC (stereo not given)" measured_on="LXFL 529" assay_readout=GI50 result="> 100 µM (inactive)"
compound=O=C1c2ccccc2C(=O)C1C(c1ccc(F)cc1)C1C(=O)c2ccccc2C1=O measured_on="LXFL 529" assay_readout=GI50 result="> 100 µM (inactive)"
compound=Cc1ccc(NC(=O)C(=O)CC(=O)c2c(C)[n+]([O-])c3ccccc3[n+]2[O-])cc1 measured_on="LXFL 529" assay_readout=GI50 result="35.2 µM (inactive)"
compound="CC(=O)OC1CC2C(C)(C)C(=O)C=C[C@]2(C)C2CCC3(C)C(=CCC3[C@H](CO)C[C@H](O)C(=O)C(C)(C)O)[C@]12C (stereo not given in full)" measured_on="LXFL 529" assay_readout=GI50 result="42.4 µM (inactive)"
compound=C1=c2ccccc2=C2C(=C(c3ccccc3)C(c3ccccc3)=NN2c2ccccc2)S1 measured_on="LXFL 529" assay_readout=GI50 result="> 100 µM (inactive)"
compound="CCCCCC#COC1CC(C)CC[C@@H]1C(C)C (stereo not given in full)" measured_on="LXFL 529" assay_readout=GI50 result="97.9 µM (inactive)"
compound="COC(=O)C1=C(C(=O)OC)C23CC4CCC2(C(=O)C1O3)C4(C)C (stereo not given)" measured_on="LXFL 529" assay_readout=GI50 result="> 100 µM (inactive)"
compound=COc1ccc(C2=NN(C(C)=O)c3nc4ccccc4nc3O2)cc1 measured_on="LXFL 529" assay_readout=GI50 result="31.4 µM (inactive)"
compound=CC1=N/C(=C\c2ccc([N+](=O)[O-])cc2)C(=O)O1 measured_on="LXFL 529" assay_readout=GI50 result="> 100 µM (inactive)"
compound="O=C1C(Cl)=C(Cl)C(=O)N1c1ccc(F)cc1 [FLUOROIMIDE]" measured_on="LXFL 529" assay_readout=GI50 result="15.9 µM (inactive)"
compound="CC(C)NC1CCCCC2c3ccccc3C12O (stereo not given)" measured_on="LXFL 529" assay_readout=GI50 result="> 100 µM (inactive)"
compound=O=C(Nc1ccccc1)N1C(c2ccccc2)=N[C@@H](c2ccccc2)[C@@H]1c1ccccc1 measured_on="LXFL 529" assay_readout=GI50 result="15.6 µM (inactive)"
compound=N#CC1(CCCCl)CCCCC1 measured_on="LXFL 529" assay_readout=GI50 result="> 100 µM (inactive)"
compound=CCOC(=O)c1ccc(N2C(=O)/C(=C\OC)c3ccccc3C2=O)cc1 measured_on="LXFL 529" assay_readout=GI50 result="23.6 µM (inactive)"
compound=COc1ccc(/C=C2/C(=O)N(C(=O)c3ccccc3O)N=C2C)cc1 measured_on="LXFL 529" assay_readout=GI50 result="0.205 µM (active)"
compound="C=CCc1cc(OC)c2c(c1)C(O)CC(c1ccc(OC)c(OC)c1)O2 (stereo not given)" measured_on="LXFL 529" assay_readout=GI50 result="> 100 µM (inactive)"
compound=CC[n+]1c(/C=C/c2ccc(N(CCCl)CCCl)cc2)ccc2cc(I)ccc21 measured_on="LXFL 529" assay_readout=GI50 result="0.409 µM (active)"
compound="COC(=O)C1=C(C(=O)OC)C2(CCCCCC2=O)OC1=O (stereo not given)" measured_on="LXFL 529" assay_readout=GI50 result="> 100 µM (inactive)"
